# Tested on: ATP;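 also: ATP exposure 15 min at 22 °C before imaging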
# EXPERIMENT SUMMARY: switch fluorescence ratio, 500 uM ATP over buffer (Cy3 cluster intensity, sum of 5 cycles each) (fold (ratio)); higher = stronger signal-on switching upon ATP binding; sequences stand for … in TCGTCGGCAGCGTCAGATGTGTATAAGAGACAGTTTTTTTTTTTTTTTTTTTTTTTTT…TC
# ASSAY SETUP: aptamer strand: ATP DNA aptamer (quencher-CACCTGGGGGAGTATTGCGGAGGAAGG + anchor), 100 nM annealed; ATP concentration: 500 uM
Lab note: compare switch fluorescence ratio against 1. Equal or greater, write met. Smaller, write not met.

Query: Form field: switch fluorescence ratio at least 1? Entry: `TTTTGTAGCT`
Reply: not met

Query: Evaluate `AAGCTCGACG` : switch fluorescence ratio at minimum 1?
Reply: not met

Query: Quick check: does `GATTGCTGGT` have switch fluorescence ratio greater than or equal to 1?
Reply: not met

Query: Determine whether this sequence has switch fluorescence ratio no lower than 1: `AATTTTGTGG`
Reply: met

Query: Check the entry `ATTTTTTGCC` : does switch fluorescence ratio equal or exceed 1?
Reply: not met

Query: Quick check, switch fluorescence ratio >= 1? `AGTTAAAGTG`
Reply: met

Query: // inclusive: switch fluorescence ratio at least 1? input: `TTTCGGTTCA`
Reply: met

Query: Please indicate if the recorded switch fluorescence ratio for `CTCGCCGCGG` meets or exceeds 1.
Reply: met

---

# System: ATP;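 also: ATP exposure 15 min at 22 °C before imaging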
# EXPERIMENT SUMMARY: switch fluorescence ratio, 500 uM ATP over buffer (Cy3 cluster intensity, sum of 5 cycles each) (fold (ratio)); higher = stronger signal-on switching upon ATP binding; sequences stand for … in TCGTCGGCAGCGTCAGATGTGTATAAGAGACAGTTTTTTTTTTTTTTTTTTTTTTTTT…TC
# ASSAY SETUP: aptamer strand: ATP DNA aptamer (quencher-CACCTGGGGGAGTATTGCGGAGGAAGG + anchor), 100 nM annealed; ATP concentration: 500 uM
I would appreciate it if you labelled entries t when switch fluorescence ratio is 1 or higher, otherwise f.

Query: Reported switch fluorescence ratio reaches at least 1 for `GATCGGGAAC` ?
Reply: t

Query: I'd appreciate it if you could say whether `CATCGGTGTG` has switch fluorescence ratio at least equal to 1.
Reply: f

Query: Could you please find out whether `ATTCCGCCGA` has switch fluorescence ratio that meets 1 or exceeds it?
Reply: t

Query: Reported switch fluorescence ratio reaches at least 1 for `ATATTTGTCA` ?
Reply: t

Query: Can `GGTGGTGGGC` be said to have switch fluorescence ratio at or above 1?
Reply: f

---

# Test system: ATP;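 also: ATP exposure 15 min at 22 °C before imaging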
# EXPERIMENT SUMMARY: switch fluorescence ratio, 500 uM ATP over buffer (Cy3 cluster intensity, sum of 5 cycles each) (fold (ratio)); higher = stronger signal-on switching upon ATP binding; sequences stand for … in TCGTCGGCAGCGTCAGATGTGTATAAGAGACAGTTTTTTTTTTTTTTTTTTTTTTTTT…TC
# ASSAY SETUP: aptamer strand: ATP DNA aptamer (quencher-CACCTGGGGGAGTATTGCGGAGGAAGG + anchor), 100 nM annealed; ATP concentration: 500 uM
Provide the recorded switch fluorescence ratio for the entries that follow.

Query: Tell me the measured switch fluorescence ratio of `TCGGGTTAGG` , please.
Reply: 0.998

Query: Which switch fluorescence ratio is listed for `CCATTCTTGA` ?
Reply: 0.996

Query: # input sequence: `TCTGAAAAAG` ; wanted: its switch fluorescence ratio
Reply: 2.29

Query: switch fluorescence ratio lookup needed for `AGGTAGATAG` , thanks.
Reply: 0.948

Query: Param item = `TAAGAGGGTC` ; retrieve measured switch fluorescence ratio.
Reply: 0.999

Query: Entry `ATGAGTTGGG` : reported switch fluorescence ratio = ?
Reply: 0.999

Query: For `AGAGGGGGGC` , what is its reported switch fluorescence ratio?
Reply: 1.04

Query: Using the record for `GGGGTCGCTG` , report its switch fluorescence ratio.
Reply: 0.965

Query: Looking for the measured switch fluorescence ratio of `AATTTTAGAG` , can you help?
Reply: 0.973

Query: Which switch fluorescence ratio value belongs to `AGCAATGCTT` ?
Reply: 3.09

Query: Find the recorded switch fluorescence ratio belonging to `TGGGACGTTG` and report it.
Reply: 0.995

Query: What does the record list as switch fluorescence ratio for `GATTCAAGTG` ?
Reply: 0.96

Query: Recorded switch fluorescence ratio of `GTTGGGGGTT` , please.
Reply: 1.01

Query: switch fluorescence ratio; subject: `CGTTTATGTA`
Reply: 0.995

Query: Returns the measured switch fluorescence ratio for the input sequence. Input: `AGGAGTGCCA`
Reply: 1.02

Query: Item `TATCCGAGGT` has what recorded switch fluorescence ratio?
Reply: 1.16

Query: If you can, please state the reported switch fluorescence ratio value of `CAGGACTGCA` .
Reply: 1.03

Query: # input sequence: `GATCATCAGT` ; wanted: its switch fluorescence ratio
Reply: 0.991

Query: # input sequence: `TTAATATTAC` ; wanted: its switch fluorescence ratio
Reply: 1.01

Query: Which switch fluorescence ratio reading was recorded for the sequence `CACGGGCTTC` ?
Reply: 1.02

Query: What value of switch fluorescence ratio has been reported for the following sequence? `AAGGGAGCTG`
Reply: 1.02

Query: Item under review: `CAATGGTTCA` . Reported switch fluorescence ratio?
Reply: 1.01

Query: switch fluorescence ratio lookup needed for `CGGTGTAGCT` , thanks.
Reply: 1.03

Query: Bench note: what switch fluorescence ratio did `GGGGAGTGAA` show?
Reply: 0.992

Query: # input sequence: `CAAAAGGGGT` ; wanted: its switch fluorescence ratio
Reply: 1

Query: Recorded switch fluorescence ratio of `CGCGAGGATG` , please.
Reply: 1.02

Query: Can you look up the measured switch fluorescence ratio of `TTGGGGCCCA` for me?
Reply: 1

Query: # lookup: switch fluorescence ratio of `TCATTTTAGT`
Reply: 0.99

Query: Entry under review: `CTTAAATTAT` . Reported switch fluorescence ratio?
Reply: 0.997

Query: # lookup: switch fluorescence ratio of `ACGCATTCAA`
Reply: 1.24

Query: Reported switch fluorescence ratio for `CCTGAGGATG` : what is it?
Reply: 1.03

Query: Which switch fluorescence ratio reading was recorded for the sequence `TTCTGGTTTT` ?
Reply: 0.973

Query: // query switch fluorescence ratio value for entry `GCTTCGGGGC`
Reply: 1.01

Query: Param item = `GGACTTTTCA` ; retrieve measured switch fluorescence ratio.
Reply: 0.96

Query: Could you share which switch fluorescence ratio value was measured for `ATAGTTAAAC` ?
Reply: 1.01

Query: May I ask what switch fluorescence ratio has been recorded for `AACATATGTT` ?
Reply: 0.972

Query: Entry `TGTAGCAGGG` : reported switch fluorescence ratio = ?
Reply: 1.12

Query: Which switch fluorescence ratio value is on record for `TAGTAGTTTT` ?
Reply: 1.01

Query: Return reported switch fluorescence ratio; argument: `GCGACATCGT`
Reply: 1.03

Query: Name the recorded switch fluorescence ratio for `CGGGAAGGCT` .
Reply: 1.06

Query: Which switch fluorescence ratio reading was recorded for the sequence `TTATTAATGT` ?
Reply: 1.02

Query: Returns the measured switch fluorescence ratio for the input sequence. Input: `TAACCTACCG`
Reply: 1.41

Query: // lookup switch fluorescence ratio for `CTGGGTTTGT`
Reply: 0.981
